Assign cell viability to each entry below.
- Test system: MARIMO;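 note: after 48 h exposure read by CellTiter-Glo luminescence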
- test.protocol: cell viability relative to vehicle control; higher = less cytotoxic
- condition.label: 10 µM; SRSF2 genotype: SRSF2 P95H/wt
Where a name gives a salt, the structure may show the parent alone.
Give bare numbers, in %.

Look over these answered cases.
compound | study.target | cell viability [%]
COc1c(N2C[C@@H]3CCCN[C@@H]3C2)c(F)cc2c(=O)c(C(=O)O)cn(C3CC3)c12 [Moxifloxacin hydrochloride] | MARIMO | 101
O[C@@H]1CO[C@H]2[C@@H]1OC[C@@H]2O [Isosorbide] | MARIMO | 107
O=C(c1ccc(F)cc1)N1CCCC(c2nc(-c3ccc(F)cc3)no2)C1 (stereo unspecified) | MARIMO | 66
O=C(O)CCc1ccc(NCc2cccc(Oc3ccccc3)c2)cc1 | MARIMO | 82.4
CC(=O)N1CCN(CCOc2ccc(C3CCN(C4=Nn5c(nnc5C(F)(F)F)CC4)CC3)cc2)CC1 | MARIMO | 60.6

Answer for every listed entry: what is its cell viability? The entries follow.
1. C1N2CN3CN1CN(C2)C3
2. O=C1CC(=O)c2c(Cl)c(Cl)c(Cl)c(Cl)c21
3. N#Cc1cccc(-c2c[nH]c3ncnc(N4CCOCC4)c23)c1
4. Cc1ccc(NC(=O)c2ccc(CN3CCN(C)CC3)cc2)cc1Nc1nccc(-c2cccnc2)n1 [Imatinib (STI571)]
5. CC(=O)Oc1cc(C(F)(F)F)ccc1C(=O)O
6. CC1(C)S[C@@H]2[C@H](NC(=O)[C@H](NC(=O)N3CCNC3=O)c3ccccc3)C(=O)N2[C@H]1C(=O)O [Azlocillin sodium salt]

Output:
1: 103; 2: 99.7; 3: 81.9; 4: 101; 5: 98.9; 6: 82.3

Below are some compounds; for each one, tell me its cell viability.
1. CNC(=O)c1c(F)cccc1Nc1nc(Nc2cc3c(cc2OC)CCN3C(=O)CN(C)C)nc2[nH]ccc12
2. CC(C)(F)C[C@H](N[C@@H](c1ccc(-c2ccc(S(C)(=O)=O)cc2)cc1)C(F)(F)F)C(=O)NC1(C#N)CC1
3. CN(CCNCc1cn(Cc2ccc(Cl)cc2)nn1)CCNc1ccnc2cc(Cl)ccc12
4. Nc1nc2c(ncn2COC(CO)CO)c(=O)[nH]1
5. O=c1ncccn1[C@@H]1O[C@H](CO)[C@@H](O)[C@H]1O
6. Nc1ccn([C@@H]2O[C@H](CO)[C@@H](O)[C@H]2O)c(=O)n1
7. COc1cc(N2CCC(N)CC2)ccc1Nc1ncc(Cl)c(-c2c[nH]c3ccccc23)n1

Output:
46.2
94.5
28.8
100
87.7
82.5
37.8

Below are some compounds; for each one, tell me its cell viability.
1. CCCCOc1cc(C(=O)NCCN(CC)CC)c2ccccc2n1 [Dibucaine (Cinchocaine) HCl]
2. CCCCCCCCCCCCCCCC(=O)OCC [Ethyl palmitate]

Output:
81.8
103
